# ASSAY OVERVIEW: In vivo bioavailability experiment: plasma aliskiren after a single i.v. or oral dose
# SETTINGS: male, Sprague-Dawley, rat, iv; rats, i.v. 5 μmole/kg, plasma up to 24 h
REPORTED PROPERTY: AUC(0-t)

                                   molecule  reported_property  test_result
0  COCCCOc1cc(C[C@@H](C[C@H](N)[C@@H](O)C[C@H](C(=O)NCC(C)(C)C(N)=O)C(C)C)C(C)C)ccc1OC [Aliskiren hemifumarate]           AUC(0-t)  994 ng·h/mL
